- Test system: Mast/stem cell growth factor receptor Kit (Homo sapiens) (UniProt P10721);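 further: values given as mean inhibition of KIT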
- Sequence (P10721 whole entry): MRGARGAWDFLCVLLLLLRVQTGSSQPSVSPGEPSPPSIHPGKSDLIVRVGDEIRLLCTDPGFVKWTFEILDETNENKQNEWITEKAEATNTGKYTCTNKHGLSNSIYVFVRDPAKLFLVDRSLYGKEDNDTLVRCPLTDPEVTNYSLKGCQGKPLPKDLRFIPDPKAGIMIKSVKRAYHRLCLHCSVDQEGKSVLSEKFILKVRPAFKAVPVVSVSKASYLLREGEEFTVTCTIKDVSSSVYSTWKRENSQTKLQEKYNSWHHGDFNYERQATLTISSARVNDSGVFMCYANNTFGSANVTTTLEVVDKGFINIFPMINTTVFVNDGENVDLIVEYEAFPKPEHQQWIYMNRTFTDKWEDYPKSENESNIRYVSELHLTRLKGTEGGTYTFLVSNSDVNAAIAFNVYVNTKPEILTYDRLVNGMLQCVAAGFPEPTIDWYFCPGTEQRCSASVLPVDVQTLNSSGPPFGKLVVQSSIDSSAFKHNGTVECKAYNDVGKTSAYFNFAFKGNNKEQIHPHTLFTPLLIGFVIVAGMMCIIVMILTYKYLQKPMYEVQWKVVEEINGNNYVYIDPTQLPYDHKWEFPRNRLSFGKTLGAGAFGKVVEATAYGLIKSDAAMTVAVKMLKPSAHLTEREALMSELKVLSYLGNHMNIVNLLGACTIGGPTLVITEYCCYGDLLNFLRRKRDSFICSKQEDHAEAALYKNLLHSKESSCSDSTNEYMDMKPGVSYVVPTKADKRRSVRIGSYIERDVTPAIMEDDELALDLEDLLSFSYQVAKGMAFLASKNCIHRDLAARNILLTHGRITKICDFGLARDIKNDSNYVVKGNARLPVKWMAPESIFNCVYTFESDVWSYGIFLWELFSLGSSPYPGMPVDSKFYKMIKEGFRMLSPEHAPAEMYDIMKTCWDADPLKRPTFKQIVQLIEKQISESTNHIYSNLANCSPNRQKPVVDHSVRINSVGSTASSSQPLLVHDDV
- Experimental conditions: at 1 µM
Metric: inhibition (%)

> print(dat)
                         chemical.structure                               test.system  result.unit  measured.value
1  CNC(=O)c1ncccc1Nc1nc(Nc2cc3c(cc2OC)CCCN3C(=O)CN(C)C)nc2[nH]ccc12  Mast/stem cell growth factor receptor Kit (Homo sapiens) (UniProt P10721)            %            3.44
2  CNC(=O)c1sc(-n2cnc3cc(OC)c(OC)cc32)cc1OCc1ccccc1C(F)(F)F  Mast/stem cell growth factor receptor Kit (Homo sapiens) (UniProt P10721)            %            6.11
3  CCOc1ccc2c(-c3ccnc(Nc4cc(OC)cc(C(F)(F)F)c4)n3)cnn2n1  Mast/stem cell growth factor receptor Kit (Homo sapiens) (UniProt P10721)            %            56.5
4  COc1cc2c(cc1Nc1nc(Nc3cccc(F)c3C(N)=O)c3cc[nH]c3n1)N(C(=O)CN1CCN(C(C)C)CC1)CC2  Mast/stem cell growth factor receptor Kit (Homo sapiens) (UniProt P10721)            %            1.51
5    O=C(Nc1n[nH]c2nnc(-c3cccnc3)cc12)C1CC1  Mast/stem cell growth factor receptor Kit (Homo sapiens) (UniProt P10721)            %            2.59
6    Cc1ccc(-c2cc3c(NC(=O)C4CC4)ncnc3o2)cc1  Mast/stem cell growth factor receptor Kit (Homo sapiens) (UniProt P10721)            %            32.2
7  COC(=O)Nc1nc2ccc(Oc3ccc(NC(=O)Nc4cc(C(F)(F)F)ccc4F)cc3)cc2s1  Mast/stem cell growth factor receptor Kit (Homo sapiens) (UniProt P10721)            %            73.9

---

Each item that follows carries a reported inhibition.
- Test system: Protein kinase C iota type (Homo sapiens)
- Experimental conditions: at 0.1 µM
- Description: GSK_PKIS: PKC-iota mean inhibition at 0.1 uM [Nanosyn]
Metric: inhibition (%)

> print(dat)
                          chemical.structure      metric  result.unit  measured.value
 1  CCOc1ccc2c(-c3ccnc(Nc4cc(OC)cc(C(F)(F)F)c4)n3)cnn2n1  inhibition            %            1.79
 2  c1ccc(-c2n[nH]cc2-c2ccnc(-c3ccc(OCCn4ccnc4)cc3)c2)nc1  inhibition            %            0.38
 3  NS(=O)(=O)c1ccc(N/N=C2\C(=O)Nc3cccc(CCc4ccncc4)c32)cc1  inhibition            %            0.18
 4           CNC(=O)c1cncc(/C=C/c2ccccc2C)c1  inhibition            %            0.25
 5                 Cn1c(-c2nonc2N)nc2cnccc21  inhibition            %            1.03
 6  COc1ccccc1-c1cc(/C=C2\C(=O)Nc3ncc(Br)cc32)cc(Br)c1O  inhibition            %            0.64
 7    Cc1ccc(-c2cc3c(NC(=O)C4CC4)ncnc3o2)cc1  inhibition            %            2.54
 8  O=C(O[C@H]1CN[C@H](C#Cc2cc3ncnc(Nc4ccc5c(cnn5Cc5ccccc5)c4)c3s2)C1)N1CCOCC1  inhibition            %           -1.84
 9  COc1cc2c(cc1Nc1nc(Nc3cccc(F)c3C(N)=O)c3cc[nH]c3n1)N(C(=O)CN1CCN(C(C)C)CC1)CC2  inhibition            %           -0.63
10  COC(=O)Nc1nc2cc(Oc3ccc(NC(=O)Nc4ccccc4)cc3)ccc2[nH]1  inhibition            %           -0.48
11  CCN1CCC(C(=O)Nc2n[nH]c3nnc(-c4cccc(F)c4F)cc23)CC1  inhibition            %           -0.71
12  Fc1cccc(COc2ccc(Nc3ncncc3C#Cc3ccccc3)cc2Cl)c1  inhibition            %            1.11
13  CS(=O)(=O)Nc1ccc(-c2ccc3c(NC(=O)C4CC4)n[nH]c3c2)cc1  inhibition            %            0.75

---

- Test system: Protein-tyrosine kinase 6 (Homo sapiens)
- Experimental conditions: at 0.1 µM
- Description: GSK_PKIS: BRK mean inhibition at 0.1 uM [Nanosyn]
Each item that follows carries a reported inhibition.
Metric: inhibition

> print(dat)
                         chemical.structure      metric  measured.value
1  CNC(=O)c1ncccc1Nc1nc(Nc2cc3c(cc2OC)CCCN3C(=O)CN(C)C)nc2[nH]ccc12  inhibition              4%
2  CC1(C)CC(n2cnc(-c3ccc(F)cc3)c2-c2ccnc(N)n2)CC(C)(C)N1  inhibition          -2.17%
3  CS(=O)(=O)Nc1ccc(-c2cc(-c3ccccc3)cc(C(N)=O)c2N)cc1  inhibition           0.76%

---

- Test system: Sphingosine kinase 1 (Homo sapiens);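 further: mean percent inhibition of SPHK1 activity, measured within the GSK PKIS screening panel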
- Experimental conditions: at 0.1 µM
Metric: inhibition (%)

> print(dat)
                                   compound                          test.system  measured.value
1  CC1=C(C(=O)Nc2ccc3[nH]ncc3c2)C(c2ccc(F)cc2)N=C(c2ccc(C(F)(F)F)nc2)N1 (stereo not drawn)  Sphingosine kinase 1 (Homo sapiens)            -0.6
2  Fc1ccc(Nc2nccc(-c3c(-c4ccc(C(F)(F)F)cc4)nn4ncccc34)n2)cc1F  Sphingosine kinase 1 (Homo sapiens)            0.46
3  CS(=O)(=O)CCNCc1ccoc1-c1ccc2ncnc(Nc3ccc(OCc4ccccc4)cc3)c2c1  Sphingosine kinase 1 (Homo sapiens)            0.65
4  COc1c(C(N)=O)cc(-c2ccc(Cl)cc2)cc1-c1ccc(S(N)(=O)=O)cc1  Sphingosine kinase 1 (Homo sapiens)            0.56
5  NC(=O)c1ccc2c(-c3ccnc(NCCCO)n3)c(-c3ccc(F)cc3)nn2c1  Sphingosine kinase 1 (Homo sapiens)           -2.85
6  CC(C)c1ccc(-c2cc(-c3c[nH]nc3-c3ccccn3)ccn2)cc1  Sphingosine kinase 1 (Homo sapiens)            1.34
7  O=C(O[C@H]1CN[C@H](C#Cc2cc3ncnc(Nc4ccc(OCc5cccc(F)c5)c(Cl)c4)c3s2)C1)N1CCOCC1  Sphingosine kinase 1 (Homo sapiens)            0.99
8         COc1ccc(Nc2ncc(-c3ccccc3)o2)cc1OC  Sphingosine kinase 1 (Homo sapiens)           -0.27

---

- Test system: Cyclin-dependent kinase 5 (Homo sapiens) (UniProt Q00535);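 further: mean value of inhibition, with the enzyme tested as CDK5/p35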
- Sequence (Q00535 whole entry, looked up): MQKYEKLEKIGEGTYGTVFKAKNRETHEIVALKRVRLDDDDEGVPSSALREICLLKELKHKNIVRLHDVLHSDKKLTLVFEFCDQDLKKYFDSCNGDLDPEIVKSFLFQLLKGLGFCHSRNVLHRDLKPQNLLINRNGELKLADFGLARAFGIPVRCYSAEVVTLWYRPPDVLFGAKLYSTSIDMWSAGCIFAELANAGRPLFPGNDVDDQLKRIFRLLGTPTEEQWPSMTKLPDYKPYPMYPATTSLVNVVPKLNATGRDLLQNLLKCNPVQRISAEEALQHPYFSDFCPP
- Experimental conditions: at 1 µM
Metric: inhibition

> print(dat)
                         chemical.structure      metric  measured.value
1  O=C(O[C@H]1CN[C@H](C#Cc2cc3ncnc(Nc4ccc(OCc5cccc(F)c5)c(Cl)c4)c3s2)C1)N1CCOCC1  inhibition          -0.57%
2    Cc1ccc(-c2cc3c(NC(=O)C4CC4)ncnc3o2)cc1  inhibition           3.17%
3  COc1cc(N2CCN(C(C)C)CC2)ccc1Nc1nc(Nc2cccc3ncccc23)c2cc[nH]c2n1  inhibition           4.66%
4  CS(=O)(=O)Nc1ccc(-c2cc(-c3ccccc3)cc(C(N)=O)c2N)cc1  inhibition            0.2%
5     COc1cccc(Nc2nccc(-c3cnn4ncccc34)n2)c1  inhibition             78%
6  NS(=O)(=O)c1cccc(N/C=C2\C(=O)Nc3ccccc32)c1  inhibition           16.5%
7           CNC(=O)c1cncc(/C=C/c2ccccc2C)c1  inhibition           10.4%
8  COc1c(C(N)=O)cc(-c2ccc(Cl)cc2)cc1-c1ccc(S(N)(=O)=O)cc1  inhibition           0.17%

---

- Test system: High affinity nerve growth factor receptor (Homo sapiens);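 further: each value is a mean of replicate percent inhibition readings against TRKA kinase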
- Experimental conditions: at 0.1 µM
Each item that follows carries a reported inhibition.
Metric: inhibition (%)

> print(dat)
                          chemical.structure                               test.system      metric  measured.value
 1  CS(=O)(=O)CCNCc1ccc(-c2ccc3ncnc(Nc4ccc(OCc5ccccc5)cc4)c3c2)o1  High affinity nerve growth factor receptor (Homo sapiens)  inhibition            1.91
 2  O=C(O[C@H]1CN[C@H](C#Cc2cc3ncnc(Nc4ccc5c(cnn5Cc5ccccc5)c4)c3s2)C1)N1CCOCC1  High affinity nerve growth factor receptor (Homo sapiens)  inhibition           -1.24
 3  CCS(=O)(=O)c1ccc(OC)c(Nc2ncc(-c3cccc(C(C)=O)c3)o2)c1  High affinity nerve growth factor receptor (Homo sapiens)  inhibition            4.29
 4    c1cnn2ncc(-c3ccnc(NCCCN4CCOCC4)n3)c2c1  High affinity nerve growth factor receptor (Homo sapiens)  inhibition            2.69
 5           CNC(=O)c1cncc(/C=C/c2ccccc2C)c1  High affinity nerve growth factor receptor (Homo sapiens)  inhibition            3.97
 6  COC(=O)Nc1nc2ccc(Oc3ccc(NC(=O)Nc4cc(C(F)(F)F)ccc4F)cc3)cc2s1  High affinity nerve growth factor receptor (Homo sapiens)  inhibition            24.2
 7  O=C(O[C@H]1CN[C@H](C#Cc2cc3ncnc(Nc4ccc5c(ccn5Cc5cc(F)ccc5F)c4)c3s2)C1)N1CCOCC1  High affinity nerve growth factor receptor (Homo sapiens)  inhibition            1.93
 8  CC1(C)CC(n2cnc(-c3ccc(F)cc3)c2-c2ccnc(N)n2)CC(C)(C)N1  High affinity nerve growth factor receptor (Homo sapiens)  inhibition            6.46
 9  COc1ccc2ncn(-c3cc(O[C@H](C)c4ccccc4C(F)(F)F)c(C(N)=O)s3)c2c1  High affinity nerve growth factor receptor (Homo sapiens)  inhibition           -0.31
10  CS(=O)(=O)CCNCc1ccc(-c2ccc3ncnc(Nc4ccc(OCc5cccc(C(F)(F)F)c5)cc4)c3c2)o1  High affinity nerve growth factor receptor (Homo sapiens)  inhibition            2.16
11  CCOc1ccc2c(-c3ccnc(Nc4cc(OC)cc(C(F)(F)F)c4)n3)cnn2n1  High affinity nerve growth factor receptor (Homo sapiens)  inhibition            0.62
12  Fc1cccc(COc2ccc(Nc3ncncc3C#Cc3ccccc3)cc2Cl)c1  High affinity nerve growth factor receptor (Homo sapiens)  inhibition            2.85
13  COc1c(C(N)=O)cc(-c2ccc(Cl)cc2)cc1-c1ccc(S(N)(=O)=O)cc1  High affinity nerve growth factor receptor (Homo sapiens)  inhibition            4.76
14  CS(=O)(=O)CCNCc1ccoc1-c1ccc2ncnc(Nc3ccc(OCc4ccccc4)cc3)c2c1  High affinity nerve growth factor receptor (Homo sapiens)  inhibition            1.31
